experimentalSystem: α4β7 integrin (Homo sapiens (Human), UniProt P13612+P26010)
Sequence (P13612 34-1032): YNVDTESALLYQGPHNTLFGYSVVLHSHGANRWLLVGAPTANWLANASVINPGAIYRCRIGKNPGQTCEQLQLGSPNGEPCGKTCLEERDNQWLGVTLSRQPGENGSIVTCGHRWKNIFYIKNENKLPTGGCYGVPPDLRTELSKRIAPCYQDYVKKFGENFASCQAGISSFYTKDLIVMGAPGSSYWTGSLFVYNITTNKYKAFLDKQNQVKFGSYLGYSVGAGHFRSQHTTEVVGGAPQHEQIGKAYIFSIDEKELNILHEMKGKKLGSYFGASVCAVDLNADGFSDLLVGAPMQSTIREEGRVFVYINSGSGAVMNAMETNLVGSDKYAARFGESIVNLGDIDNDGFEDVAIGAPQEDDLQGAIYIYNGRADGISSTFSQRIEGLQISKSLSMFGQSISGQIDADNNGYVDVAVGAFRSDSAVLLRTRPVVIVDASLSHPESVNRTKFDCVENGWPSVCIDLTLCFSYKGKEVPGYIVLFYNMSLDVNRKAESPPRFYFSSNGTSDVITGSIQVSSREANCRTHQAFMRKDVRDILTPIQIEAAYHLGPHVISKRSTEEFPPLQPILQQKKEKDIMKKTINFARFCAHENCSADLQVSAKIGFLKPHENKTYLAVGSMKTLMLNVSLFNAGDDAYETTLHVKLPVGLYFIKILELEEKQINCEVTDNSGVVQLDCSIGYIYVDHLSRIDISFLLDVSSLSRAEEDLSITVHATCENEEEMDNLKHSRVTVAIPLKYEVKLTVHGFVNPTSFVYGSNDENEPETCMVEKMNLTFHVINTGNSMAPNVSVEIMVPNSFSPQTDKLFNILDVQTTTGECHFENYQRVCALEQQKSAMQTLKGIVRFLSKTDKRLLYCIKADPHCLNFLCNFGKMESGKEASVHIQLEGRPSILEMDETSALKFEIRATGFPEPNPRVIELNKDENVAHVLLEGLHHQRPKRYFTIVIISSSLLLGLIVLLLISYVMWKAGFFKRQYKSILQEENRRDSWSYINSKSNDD
Sequence (P26010 20-798): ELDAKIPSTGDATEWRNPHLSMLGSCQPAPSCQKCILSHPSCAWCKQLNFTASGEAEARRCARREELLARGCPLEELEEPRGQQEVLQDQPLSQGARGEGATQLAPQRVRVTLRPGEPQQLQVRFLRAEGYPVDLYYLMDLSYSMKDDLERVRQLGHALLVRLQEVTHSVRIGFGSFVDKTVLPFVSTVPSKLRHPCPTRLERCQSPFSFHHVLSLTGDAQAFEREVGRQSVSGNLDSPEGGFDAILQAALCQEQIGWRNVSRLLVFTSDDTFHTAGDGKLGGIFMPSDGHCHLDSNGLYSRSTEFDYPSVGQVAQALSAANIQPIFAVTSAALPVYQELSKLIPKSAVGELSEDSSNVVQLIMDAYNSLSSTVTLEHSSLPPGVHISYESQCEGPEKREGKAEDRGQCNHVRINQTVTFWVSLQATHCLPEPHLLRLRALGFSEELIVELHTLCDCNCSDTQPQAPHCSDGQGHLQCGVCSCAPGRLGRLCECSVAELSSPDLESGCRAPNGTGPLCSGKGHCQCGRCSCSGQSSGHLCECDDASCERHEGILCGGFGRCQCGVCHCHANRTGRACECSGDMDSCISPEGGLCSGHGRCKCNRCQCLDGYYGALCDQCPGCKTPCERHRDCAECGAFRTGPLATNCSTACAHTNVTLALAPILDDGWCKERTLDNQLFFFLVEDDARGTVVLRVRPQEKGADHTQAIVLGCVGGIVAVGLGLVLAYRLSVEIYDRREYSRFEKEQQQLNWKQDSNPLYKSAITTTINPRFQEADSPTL
experimentalProtocol: Integrin Adhesion Assay: Protocol 4 (MAdCAM-coated plate, RPMI-8866 cells with stable LOF mutation of the ITGB1 gene)
Assay type: cell-based
assayContext: RPMI-8866 cells with stable LOF mutation of the ITGB1 gene; read-out: Mean IC50 α4β7 KO^a
pIC50: −log10 of the molar value.

{"recordSmiles": "CC[C@@H](N1CCC(C(=O)N[C@@H](Cc2cccc3c(-c4c(C(F)(F)F)c5ccccc5n(C)c4=O)cccc23)C(=O)O)(C(F)(F)F)CC1)C(F)(F)F", "pIC50": "6.00 to 7.00"}
{"recordSmiles": "O=C(O)[C@H](Cc1cccc2c(-c3ncc(CN4CCCCC4)c4ccccc34)cccc12)NC(=O)C1(C(F)(F)F)CCN(C2COC2)CC1", "pIC50": "> 8.00"}
{"recordSmiles": "COc1ccc(CN2CCC(F)CC2)c(OC)c1-c1cccc2c(C[C@H](NC(=O)c3c(C)cccc3F)C(=O)O)cccc12", "pIC50": "> 8.00"}
{"recordSmiles": "Cn1c(=O)c(-c2cccc3c(C[C@H](NC(=O)C45CC(C(F)F)(C4)C5)C(=O)O)cccc23)c(C(F)(F)F)c2ccccc21", "pIC50": "6.00 to 7.00"}
{"recordSmiles": "Cn1c(=O)c(-c2cccc3c(C[C@H](NC(=O)c4c(F)cc(NC5(C(F)F)CC5)cc4F)C(=O)O)cccc23)c(C(F)(F)F)c2ccccc21", "pIC50": "6.00 to 7.00"}
{"recordSmiles": "CN(C)Cc1cc(-c2cccc3c(C[C@H](NC(=O)C4(C(F)(F)F)CCN(CC(F)(F)F)CC4)C(=O)O)cccc23)c2cnccc2c1", "pIC50": "7.00 to 8.00"}
{"recordSmiles": "Cc1cccc(C)c1-c1ccc(F)c(C(=O)N[C@@H](Cc2cccc3c(-c4c(C(F)(F)F)c5ccccc5n(C)c4=O)cccc23)C(=O)O)c1F", "pIC50": "6.00 to 7.00"}
{"recordSmiles": "COc1cccc(CN2CCCCC2)c1-c1cccc2c(C[C@H](NC(=O)c3c(F)ccc(F)c3C)C(=O)O)cccc12", "pIC50": "> 8.00"}
{"recordSmiles": "CCOCc1cc(OC)c(-c2cccc3c(C[C@H](NC(=O)c4c(C)cccc4F)C(=O)O)cccc23)c(OC)c1", "pIC50": "> 8.00"}
{"recordSmiles": "O=C(O)[C@H](Cc1cccc2c(-c3nccc4ccc(CCCN5CCCCC5)cc34)cccc12)NC(=O)C1(C(F)(F)F)CCN(C2COC2)CC1", "pIC50": "> 8.00"}
